biological target: T1, Human CD47-C33G (human, UniProt Q08722 19-135); assay: SPR, IgG captured, CD47 in flow; exp 3;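 note: other target is a CD47 mutein carrying C33G, used to obtain true monovalent affinity, with kon and koff fitted from SPR binding curves and KD derived from both rates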
T1 construct: also called CD47 mutein with C33G mutation
T1 sequence (Q08722 19-135 C33G limits assumed): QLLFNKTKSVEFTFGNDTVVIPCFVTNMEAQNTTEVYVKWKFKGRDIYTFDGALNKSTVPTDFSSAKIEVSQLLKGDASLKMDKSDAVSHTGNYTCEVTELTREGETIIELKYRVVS
Result Type: koff (s⁻¹)
Dear colleague, please return just the value in s⁻¹, with no unit written.

Binder | Unit Name | Numeric Value
108VH10.Ml / 108VL10.Me (antibody, V domains shown, 4D5-framework series; constant regions not restated for this series; also called VH10.Ml VL10.Me) VH: EVQLVESGGGLVQPGGSLRLSCAASGFTFSHHWIHWVRQAPGKGLEWVAMIDASDSETRLSQKFKGRFTISADTSKNTAYLQMNSLRAEDTAVYYCSRLGRYYFDYWGQGTLVTVSS VL: DIQMTQSPSSLSASVGDRVTITCRASQSISSYLNWYQQKPGKAPKLLIYGASSRYSGVPSRFSGSRSGTDFTLTISSLQPEDFATYYCGESYGHLYTFGQGTKVEIK | s⁻¹ | 0.0073
108VH10 / 108VL10.M1 (antibody, V domains shown, 4D5-framework series; also called VH10 VL10.M1; straight-graft antibody) VH: EVQLVESGGGLVQPGGSLRLSCAASGYSFTHHWIHWVRQAPGKGLEWVAMIDPSDSETRLSQKFKDRFTISADTSKNTAYLQMNSLRAEDTAVYYCSRLGRYYFDYWGQGTLVTVSS VL: DIQMTQSPSSLSASVGDRVTITCRASENVGTYISWYQQKPGKAPKLLIYGASNRYTGVPSRFSGSRSGTDFTLTISSLQPEDFATYYCGESYGHLYTFGQGTKVEIK | s⁻¹ | 0.003

The record that follows has no koff shown yet.
108VH10.Mi / 108VL10.Me (antibody, V domains shown, 4D5-framework series; constant regions not restated for this series; also called VH10.Mi VL10.Me) VH: EVQLVESGGGLVQPGGSLRLSCAASGFTFSHHWIHWVRQAPGKGLEWVAMIDASDSETRLSDKFKDRFTISADTSKNTAYLQMNSLRAEDTAVYYCSRLGRYYFDYWGQGTLVTVSS VL: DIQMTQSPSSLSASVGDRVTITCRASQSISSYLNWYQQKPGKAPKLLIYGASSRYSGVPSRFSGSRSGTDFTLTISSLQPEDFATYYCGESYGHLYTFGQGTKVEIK yielded koff of 0.0087
